- Target desc: hGPR65 (Homo sapiens)
- Construct: expressed in transfected cells; host or cells: HeLa (ATCC CCL-2), lentiviral transduction, pLX317
- Sequence (Q8IYL9 whole entry): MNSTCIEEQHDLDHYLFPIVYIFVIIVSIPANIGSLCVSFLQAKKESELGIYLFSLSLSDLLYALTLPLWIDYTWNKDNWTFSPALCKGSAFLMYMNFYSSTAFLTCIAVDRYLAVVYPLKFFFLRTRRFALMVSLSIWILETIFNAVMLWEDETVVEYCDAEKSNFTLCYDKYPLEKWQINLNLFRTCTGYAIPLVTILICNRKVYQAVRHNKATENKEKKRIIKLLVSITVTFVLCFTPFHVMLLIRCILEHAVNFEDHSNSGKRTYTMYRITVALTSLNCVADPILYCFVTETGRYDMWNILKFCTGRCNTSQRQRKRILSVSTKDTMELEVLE
- Experimental details: cAMP detection in HeLa expression cell line, hGPR65
- Assay type: cell-based
- Test settings: hGPR EC50 (uM); pH 7.2, 30 min
// EC50 lookup, one value per entry
Give the quantity in µM, number only.

These recorded examples may help you get a feel for the data.
{"Test smiles": "Cc1ccc(NC(=O)c2cnn3c(O)cc(-c4ccc(COC(C)C)cc4)nc23)cc1Cl", "Readout label": "EC50", "Measured number": 0.348}
{"Test smiles": "Cc1ccc(NC(=O)c2cnn3c(O)cc(-c4ccc(COC(C)C)cc4)nc23)nc1", "Readout label": "EC50", "Measured number": 1.2}
{"Test smiles": "Cc1ccc(NC(=O)c2cnn3c(O)cc(-c4ccc(F)c(Cl)c4)nc23)cc1", "Readout label": "EC50", "Measured number": 0.534}
{"Test smiles": "Cc1ccc(NC(=O)c2cnn3c(O)cc(-c4ccc(COC(C)C)c(Cl)c4)nc23)cc1", "Readout label": "EC50", "Measured number": 0.478}
{"Test smiles": "Cc1ccc(NC(=O)c2cnn3c(O)cc(-c4ccc(COC(C)C)cc4)nc23)c(F)c1", "Readout label": "EC50", "Measured number": 1.41}

# lookup: EC50 of Cc1ccc(NC(=O)c2cnn3c(O)cc(-c4ccc(COC(C)C)cc4)nc23)cc1F
0.347

# lookup: EC50 of COCc1ccc(-c2cc(O)n3ncc(C(=O)Nc4ccc(C(C)C)cc4)c3n2)cc1
2.94

# lookup: EC50 of COCc1ccc(-c2cc(O)n3ncc(C(=O)Nc4ccc(C)cc4)c3n2)cc1
1.2

----------
- Target desc: mGPR65 (Mus musculus)
- Construct: expressed in transfected cells; host or cells: HeLa (ATCC CCL-2), lentiviral transduction, pLX317
- Experimental details: cAMP detection in HeLa expression cell line, mGPR65
- Type: cell-based
- Test settings: HeLa, 2nd mGPR column pair; relative to 100uM forskolin (100%) and DMSO (0%); NA = no activity; read-out: mGPR Max Activity %
Use 50% as the dividing line for Emax, with the line itself on the Condition met side and lower values as Condition not met.

{"Molecule": "Cc1ccc(NC(=O)c2cnn3c(O)cc(-c4ccc(C(=O)N(C)C)cc4)nc23)cc1", "Group": "Condition not met"}
{"Molecule": "Cc1cnc(NC(=O)c2cnn3c(O)cc(-c4ccc(COC(C)C)cc4)nc23)cn1", "Group": "Condition met"}
{"Molecule": "Cc1ccc(NC(=O)c2cnn3c(O)cc(COc4ccccc4)nc23)cc1", "Group": "Condition not met"}

Is Emax at least 50%? Consider Cc1ccc(NC(=O)c2cnn3c(O)cc(-c4ccc(COC(C)C)cc4)nc23)c(Cl)c1
Condition met

Is Emax at least 50%? Consider CCOCc1ccc(-c2cc(O)n3ncc(C(=O)Nc4ccccc4)c3n2)cc1
Condition not met

----------
- Target desc: hGPR65 (Homo sapiens)
- Construct: expressed in transfected cells; host or cells: HeLa (ATCC CCL-2), lentiviral transduction, pLX317
- Experimental details: cAMP detection in HeLa expression cell line, hGPR65
- Type: cell-based
- Test settings: 2nd hGPR column pair; NA = no activity; read-out: hGPR EC50
// pEC50 lookup, one value per entry
By convention, pEC50 is the negative base-10 log of a molar concentration.

{"Compound": "Cc1ccc(NC(=O)c2cnn3c(O)cc(COc4ccccc4)nc23)cc1 [BRD6694]", "Target desc": "hGPR65 (Homo sapiens)", "Readout label": "pEC50", "Measured number": 5.33}
{"Compound": "Cc1ccc(NC(=O)c2cnn3c(O)cc(-c4ccc(COC(C)C)cc4)nc23)cn1 [BRD5071]", "Target desc": "hGPR65 (Homo sapiens)", "Readout label": "pEC50", "Measured number": 5.72}
{"Compound": "Cc1ccc(NC(=O)c2cnn3c(O)cc(-c4ccc(N5CCN(C)CC5)c(Cl)c4)nc23)cc1 [BRD5068]", "Target desc": "hGPR65 (Homo sapiens)", "Readout label": "pEC50", "Measured number": 5.55}

Find the measured pEC50: item Cc1ccc(NC(=O)c2cnn3c(O)cc(-c4ccc(-c5ccccc5)cc4)nc23)cc1 [BRD8716] , target or system hGPR65 (Homo sapiens).
6.55

Find the measured pEC50: item Cc1ccc(NC(=O)c2cnn3c(O)cc(-c4cnc(N5CCOCC5)c(Cl)c4)nc23)cc1 [BRD5065] , target or system hGPR65 (Homo sapiens).
5.73

Find the measured pEC50: item CCCc1cc(-c2cc(O)n3ncc(C(=O)Nc4ccccc4)c3n2)no1 [BRD0124] , target or system hGPR65 (Homo sapiens).
5.76

Find the measured pEC50: item COc1cccc(-c2cc(O)n3ncc(C(=O)Nc4ccc(C)cc4)c3n2)c1 [BRD6202] , target or system hGPR65 (Homo sapiens).
5.76

----------
// log10 of EC50 lookup, one value per entry
- Target desc: mGPR65 (Mus musculus)
- Construct: expressed in transfected cells; host or cells: HeLa (ATCC CCL-2), lentiviral transduction, pLX317
- Experimental details: cAMP detection in HeLa expression cell line, mGPR65
- Type: cell-based
- Test settings: mGPR EC50 (uM); NA = no activity
- Experimental: HeLa stable expression cell lines were produced by lentiviral transduction. Briefly, lentiviral plasmids for each GPCR with a C-terminal V5 Tag ([…]) were made in a pLX317 backbone using competent Escherichia coli (New England Biolabs, C3050H). […] cAMP was measured in cells using the Lance Ultra cAMP Kit. […] Cells were counted in HBSS (Gibco, 14025092) and then resuspended in stimulation buffer prepared according to the manufacturer’s instructions and adjusted to pH 7.2 using 1 M sodium hydroxide. […]
Please be aware that the numbers have been log10-transformed from EC50 in µM.

{"Compound": "Cc1ccc(NC(=O)c2cnn3c(O)cc(-c4ccc(COC(C)C)cc4)nc23)cc1F [BRD5078]", "log10 of EC50": -0.48}
{"Compound": "Cc1ccc(NC(=O)c2cnn3c(O)cc(-c4ccc(F)c(Cl)c4)nc23)cc1 [BRD5067]", "log10 of EC50": -0.48}
{"Compound": "Cc1ccc(NC(=O)c2cnn3c(O)cc(-c4ccc(COC(C)C)cc4)nc23)c(F)c1 [BRD5080]", "log10 of EC50": -1.24}
{"Compound": "COCc1ccc(-c2cc(O)n3ncc(C(=O)Nc4ccc(C(C)C)cc4)c3n2)cc1 [BRD2166]", "log10 of EC50": -0.44}
{"Compound": "COCc1ccc(-c2cc(O)n3ncc(C(=O)Nc4ccccc4)c3n2)cc1 [BRD9876]", "log10 of EC50": 0.61}
{"Compound": "Cc1ccc(NC(=O)c2cnn3c(O)cc(-c4ccc(COC(C)C)cc4)nc23)cc1 [BRD5928]", "log10 of EC50": -0.20}
{"Compound": "COCc1ccc(-c2cc(O)n3ncc(C(=O)Nc4ccc(OC)cc4)c3n2)cc1 [BRD5326]", "log10 of EC50": 0.10}

Next compound, log10 of EC50 to be filled in.
# lookup: log10 of EC50 of Cc1ccc(NC(=O)c2cnn3c(O)cc(-c4ccc(N5CCN(C)CC5)cc4)nc23)cc1 [BRD7215]
-0.79

----------
- Target desc: mGPR65 (Mus musculus, UniProt Q61038)
- Construct: expressed in transfected cells; host or cells: HeLa (ATCC CCL-2), lentiviral transduction, pLX317
- Sequence (Q61038 whole entry): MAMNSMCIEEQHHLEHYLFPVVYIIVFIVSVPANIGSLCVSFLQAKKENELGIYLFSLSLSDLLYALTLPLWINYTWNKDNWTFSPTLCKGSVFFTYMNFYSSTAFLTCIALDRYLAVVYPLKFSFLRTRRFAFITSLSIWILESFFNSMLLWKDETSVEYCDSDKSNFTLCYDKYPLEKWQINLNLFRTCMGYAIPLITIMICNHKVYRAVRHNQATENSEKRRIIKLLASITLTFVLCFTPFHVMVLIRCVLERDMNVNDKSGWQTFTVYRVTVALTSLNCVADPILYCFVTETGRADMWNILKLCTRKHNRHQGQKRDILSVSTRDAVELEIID
- Experimental details: cAMP detection in HeLa expression cell line, mGPR65
- Type: cell-based
- Test settings: mGPR EC50 (uM), second pair of columns; pH 7.2, 30 min
Please assign criterion not met whenever EC50 is at or above 0.5 µM, and criterion met whenever it is below.

Please indicate whether the reported EC50 of Cc1ccc(NC(=O)c2cnn3c(O)cc(-c4ccc(COC(C)C)c(Cl)c4)nc23)cc1 is strictly below 0.5 µM.
criterion not met

Please indicate whether the reported EC50 of Cc1ccc(NC(=O)c2cnn3c(O)cc(-c4ccc(COC(C)C)cc4)nc23)c(F)c1 is strictly below 0.5 µM.
criterion not met

Please indicate whether the reported EC50 of Cc1ccc(NC(=O)c2cnn3c(O)cc(-c4ccc(COC(C)C)cc4)nc23)cc1Cl is strictly below 0.5 µM.
criterion not met

Please indicate whether the reported EC50 of Cc1ccc(NC(=O)c2cnn3c(O)cc(-c4ccc(COC(C)C)cc4)nc23)nc1 is strictly below 0.5 µM.
criterion not met

Please indicate whether the reported EC50 of COCc1ccc(-c2cc(O)n3ncc(C(=O)Nc4ccc(C(C)C)cc4)c3n2)cc1 is strictly below 0.5 µM.
criterion met
